# Test system: DeltatarO mutant
# run-description: S. aureus survival, RN4220 and DeltatarO strains – OD600, teichoic acid synthesis inhibitors, primary screen (AID 463173)
# stated-conditions: S. aureus RN4220 wild type/DeltatarO growth, OD600, 18 h, screened at 18.75 µg/mL (by protocol)
In all, about 52,000 compounds went through this assay and about 4,300 (8.3%) were called active. No stated cut-off is given here; in the data, active means survival mostly below about 52% (no sharp cut-off); inactive means mostly above about 56%. The full list was thinned out, with actives kept by preference.
Your answer must be one of the following: active, inactive

{"compound": "O=C(NCC(c1cccnc1)N1CCc2ccccc2C1)c1ccc(F)c(F)c1 (stereo not given)", "system-name": "DeltatarO mutant", "qualitative-label": "inactive"}
{"compound": "CCN(c1ccccc1)S(=O)(=O)c1ccc(NC(=O)c2nc(S(C)(=O)=O)ncc2Cl)cc1", "system-name": "DeltatarO mutant", "qualitative-label": "active"}
{"compound": "COc1ccc(-c2[nH]c(-c3ccc(C)cc3)nc2SCC(=O)NCC2CCCO2)cc1 (stereo not given)", "system-name": "DeltatarO mutant", "qualitative-label": "inactive"}
{"compound": "C/C(Cc1ccccc1)=N\\NC(=O)c1cc(C(C)(C)C)[nH]n1", "system-name": "DeltatarO mutant", "qualitative-label": "inactive"}

Now look at this entry.
Q: Returns: the outcome recorded for CCN(c1ccccc1)S(=O)(=O)c1ccc(Cl)cc1 in this assay.
Ans: inactive

* * *

# System: DeltatarO mutant
# run-description: S. aureus survival, RN4220 and DeltatarO strains – OD600, teichoic acid synthesis inhibitors, primary screen (AID 463173)
# stated-conditions: S. aureus RN4220 wild type/DeltatarO growth, OD600, 18 h, active compounds read low, screened at 18.75 µg/mL (by protocol)
In all, about 52,000 compounds went through this assay and about 4,300 (8.3%) were called active. Only a selection was taken, and actives are over-represented in it overall.
Consider the cut-off 60%. If the recorded survival is strictly smaller, the label is satisfied; if not, the label is not satisfied.

Q: Strictly below 60%: is that where survival of Cn1c(=O)c2c(nc(SCC(=O)Nc3ccc(F)cc3)n2Cc2ccccc2)n(C)c1=O sits?
Ans: not satisfied

Q: Another compound: CCCCCCSc1nnc2c(n1)OC(C)Nc1ccc(Br)cc1-2 (stereo unspecified)
Ans: not satisfied

* * *

# Tested on: DeltatarO mutant
# run-description: S. aureus survival, RN4220 and DeltatarO strains – OD600, teichoic acid synthesis inhibitors, primary screen (AID 463173)
# stated-conditions: S. aureus RN4220 wild type/DeltatarO growth, OD600, 18 h, screened at 18.75 µg/mL (by protocol)
The campaign covered roughly 52,000 compounds. About 4,300 (8.3%) were called active. Rule as the data show it: active = survival mostly below about 52% (no sharp cut-off); inactive = mostly above about 56%. What follows is part of a selection rich in actives, with near analogues and random picks from the rest.
Write down the outcome that applies. Available outcomes: label 1 for active, label 0 for inactive

# count of solved cases: 5
{"compound": "COc1ccc(C(CC(=O)Nc2cc(OC)c(OC)c(OC)c2)N2Cc3ccccc3C2=O)cc1 (stereo not given)", "system-name": "DeltatarO mutant", "qualitative-label": "label 0"}
{"compound": "Cc1ccc(NC(=O)CC(c2ccc(F)cc2)N2Cc3ccccc3C2=O)cc1C (stereo not given)", "system-name": "DeltatarO mutant", "qualitative-label": "label 0"}
{"compound": "CCOc1ccc(-c2cccc(NS(=O)(=O)c3ccccc3C(F)(F)F)c2)nn1", "system-name": "DeltatarO mutant", "qualitative-label": "label 0"}
{"compound": "CC1=C(c2ccc(C)c(C)c2)S(=O)(=O)N=C1N1CCC(C(=O)N2CCCCC2)CC1", "system-name": "DeltatarO mutant", "qualitative-label": "label 0"}
{"compound": "O=c1ccnc(NCCc2ccccc2)[nH]1", "system-name": "DeltatarO mutant", "qualitative-label": "label 0"}

Q: Hi, sorry to bother you, what did the test record for COc1ccc(CNC(=O)C(CC(C)C)N2Cc3ccccc3C2=O)cc1 (stereo not given) ?
Ans: label 0

Q: Ok, now Cc1ccc(CN2C(=O)C3(c4ccccc42)N(c2cccc(F)c2)C(=O)CS3(=O)=O)cc1 (stereo not given)
Ans: label 0

Q: Also, CCc1ccc(CNC(=O)C2CCN(c3nnc(-n4c(C)ccc4C)s3)CC2)cc1 please.
Ans: label 0

Q: Param item: O=C(CCOc1ccccc1)N(Cc1cccnc1)c1nc2c(Cl)cccc2s1
Ans: label 0

Q: And what about the compound CC1=C(c2ccc(C)c(C)c2)S(=O)(=O)N=C1N1CCC(C(=O)N2CCC(C)CC2)CC1 ?
Ans: label 0

Q: Further, for CC1=C(c2ccc(C(C)C)cc2)S(=O)(=O)N=C1N1CCC(C(=O)NCc2ccccc2)CC1 ?
Ans: label 1

Q: CCOc1ccc(C(CC(=O)Nc2cc(C)c(Cl)cc2OC)N2Cc3ccccc3C2=O)cc1OC (stereo not given) ?
Ans: label 0

Q: Another compound to look at: CCOC(=O)CNC(=O)CC(c1cc(OC)c(OC)c(OC)c1)N1Cc2ccccc2C1=O (stereo not given)
Ans: label 1

Q: Lookup CC1=C(c2ccc(C(C)C)cc2)S(=O)(=O)N=C1N1CCC(C(=O)NCc2ccco2)CC1
Ans: label 0
